- TARGET SYSTEM: binding partner of C5A (XPA23)
- ASSAY INFO: Biacore K-off
Could you please report measured log10(fold difference in affinity vs original) for the items listed next?
All values: base-10 log of fold difference in affinity vs original in fold.

Report log10(fold difference in affinity vs original) for C5A (XPA23) VL P95D (antibody, V domains shown) VH: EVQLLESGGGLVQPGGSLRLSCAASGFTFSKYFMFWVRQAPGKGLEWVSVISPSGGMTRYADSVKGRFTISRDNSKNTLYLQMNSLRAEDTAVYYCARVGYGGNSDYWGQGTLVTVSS VL: DIQMTQSPSSVSASVGDRLTIICRASQDINRWLAWYQQTPGNAPKLLIHSATSLQSGVPSRFSGSGSGTDFTLTINSLQPEDFATYYCQQADSFDLTFGGGTKVEIK
0.12

Report log10(fold difference in affinity vs original) for C5A (XPA23) VL P95E (antibody, V domains shown) VH: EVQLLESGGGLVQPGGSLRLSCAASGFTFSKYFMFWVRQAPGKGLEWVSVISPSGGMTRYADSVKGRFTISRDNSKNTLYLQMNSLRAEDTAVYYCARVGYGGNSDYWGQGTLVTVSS VL: DIQMTQSPSSVSASVGDRLTIICRASQDINRWLAWYQQTPGNAPKLLIHSATSLQSGVPSRFSGSGSGTDFTLTINSLQPEDFATYYCQQADSFELTFGGGTKVEIK
-0.06

Report log10(fold difference in affinity vs original) for C5A (XPA23) VL N30K (antibody, V domains shown) VH: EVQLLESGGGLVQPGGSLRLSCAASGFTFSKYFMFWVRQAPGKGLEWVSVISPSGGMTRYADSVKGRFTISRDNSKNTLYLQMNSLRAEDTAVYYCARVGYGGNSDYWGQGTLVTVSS VL: DIQMTQSPSSVSASVGDRLTIICRASQDIKRWLAWYQQTPGNAPKLLIHSATSLQSGVPSRFSGSGSGTDFTLTINSLQPEDFATYYCQQADSFPLTFGGGTKVEIK
-0.21

Report log10(fold difference in affinity vs original) for C5A (XPA23) VL S93G (antibody, V domains shown) VH: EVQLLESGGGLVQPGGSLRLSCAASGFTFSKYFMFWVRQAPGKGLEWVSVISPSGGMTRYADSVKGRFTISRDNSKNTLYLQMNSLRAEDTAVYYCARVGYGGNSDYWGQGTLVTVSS VL: DIQMTQSPSSVSASVGDRLTIICRASQDINRWLAWYQQTPGNAPKLLIHSATSLQSGVPSRFSGSGSGTDFTLTINSLQPEDFATYYCQQADGFPLTFGGGTKVEIK
-0.12

Report log10(fold difference in affinity vs original) for C5A (XPA23) VH K31V (antibody, V domains shown) VH: EVQLLESGGGLVQPGGSLRLSCAASGFTFSVYFMFWVRQAPGKGLEWVSVISPSGGMTRYADSVKGRFTISRDNSKNTLYLQMNSLRAEDTAVYYCARVGYGGNSDYWGQGTLVTVSS VL: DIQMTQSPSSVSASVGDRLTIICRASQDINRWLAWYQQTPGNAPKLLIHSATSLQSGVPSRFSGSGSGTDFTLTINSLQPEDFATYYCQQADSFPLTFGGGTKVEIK
-0.09

Report log10(fold difference in affinity vs original) for C5A (XPA23) VL S93N (antibody, V domains shown) VH: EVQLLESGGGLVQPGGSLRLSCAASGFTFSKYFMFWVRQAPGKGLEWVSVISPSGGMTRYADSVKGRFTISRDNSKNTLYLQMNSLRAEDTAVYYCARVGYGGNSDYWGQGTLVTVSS VL: DIQMTQSPSSVSASVGDRLTIICRASQDINRWLAWYQQTPGNAPKLLIHSATSLQSGVPSRFSGSGSGTDFTLTINSLQPEDFATYYCQQADNFPLTFGGGTKVEIK
0.58

Report log10(fold difference in affinity vs original) for C5A (XPA23) VL L96T (antibody, V domains shown) VH: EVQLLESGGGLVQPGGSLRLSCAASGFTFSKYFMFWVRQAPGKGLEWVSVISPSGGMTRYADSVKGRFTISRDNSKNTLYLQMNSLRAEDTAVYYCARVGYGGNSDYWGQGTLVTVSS VL: DIQMTQSPSSVSASVGDRLTIICRASQDINRWLAWYQQTPGNAPKLLIHSATSLQSGVPSRFSGSGSGTDFTLTINSLQPEDFATYYCQQADSFPTTFGGGTKVEIK
-1.22

Report log10(fold difference in affinity vs original) for C5A (XPA23) VL Q27D (antibody, V domains shown) VH: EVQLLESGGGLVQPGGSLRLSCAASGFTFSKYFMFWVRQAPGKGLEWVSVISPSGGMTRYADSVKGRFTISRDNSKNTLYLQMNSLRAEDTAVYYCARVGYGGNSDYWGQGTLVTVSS VL: DIQMTQSPSSVSASVGDRLTIICRASDDINRWLAWYQQTPGNAPKLLIHSATSLQSGVPSRFSGSGSGTDFTLTINSLQPEDFATYYCQQADSFPLTFGGGTKVEIK
0.03

Report log10(fold difference in affinity vs original) for C5A (XPA23) VL H49R (antibody, V domains shown) VH: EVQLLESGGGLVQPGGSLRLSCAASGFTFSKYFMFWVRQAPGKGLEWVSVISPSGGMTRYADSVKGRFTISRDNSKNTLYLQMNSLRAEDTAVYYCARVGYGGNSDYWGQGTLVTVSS VL: DIQMTQSPSSVSASVGDRLTIICRASQDINRWLAWYQQTPGNAPKLLIRSATSLQSGVPSRFSGSGSGTDFTLTINSLQPEDFATYYCQQADSFPLTFGGGTKVEIK
-0.68

Report log10(fold difference in affinity vs original) for C5A (XPA23) VL T52R (antibody, V domains shown) VH: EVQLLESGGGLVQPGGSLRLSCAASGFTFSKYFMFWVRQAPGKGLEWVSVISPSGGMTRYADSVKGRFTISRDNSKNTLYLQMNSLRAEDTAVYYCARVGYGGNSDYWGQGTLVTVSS VL: DIQMTQSPSSVSASVGDRLTIICRASQDINRWLAWYQQTPGNAPKLLIHSARSLQSGVPSRFSGSGSGTDFTLTINSLQPEDFATYYCQQADSFPLTFGGGTKVEIK
0.53
